Data provenance: patent US20170182124A1

Biological target: FGF receptor/BKL complex
Sequence (Q86Z14 whole entry, one chain of several): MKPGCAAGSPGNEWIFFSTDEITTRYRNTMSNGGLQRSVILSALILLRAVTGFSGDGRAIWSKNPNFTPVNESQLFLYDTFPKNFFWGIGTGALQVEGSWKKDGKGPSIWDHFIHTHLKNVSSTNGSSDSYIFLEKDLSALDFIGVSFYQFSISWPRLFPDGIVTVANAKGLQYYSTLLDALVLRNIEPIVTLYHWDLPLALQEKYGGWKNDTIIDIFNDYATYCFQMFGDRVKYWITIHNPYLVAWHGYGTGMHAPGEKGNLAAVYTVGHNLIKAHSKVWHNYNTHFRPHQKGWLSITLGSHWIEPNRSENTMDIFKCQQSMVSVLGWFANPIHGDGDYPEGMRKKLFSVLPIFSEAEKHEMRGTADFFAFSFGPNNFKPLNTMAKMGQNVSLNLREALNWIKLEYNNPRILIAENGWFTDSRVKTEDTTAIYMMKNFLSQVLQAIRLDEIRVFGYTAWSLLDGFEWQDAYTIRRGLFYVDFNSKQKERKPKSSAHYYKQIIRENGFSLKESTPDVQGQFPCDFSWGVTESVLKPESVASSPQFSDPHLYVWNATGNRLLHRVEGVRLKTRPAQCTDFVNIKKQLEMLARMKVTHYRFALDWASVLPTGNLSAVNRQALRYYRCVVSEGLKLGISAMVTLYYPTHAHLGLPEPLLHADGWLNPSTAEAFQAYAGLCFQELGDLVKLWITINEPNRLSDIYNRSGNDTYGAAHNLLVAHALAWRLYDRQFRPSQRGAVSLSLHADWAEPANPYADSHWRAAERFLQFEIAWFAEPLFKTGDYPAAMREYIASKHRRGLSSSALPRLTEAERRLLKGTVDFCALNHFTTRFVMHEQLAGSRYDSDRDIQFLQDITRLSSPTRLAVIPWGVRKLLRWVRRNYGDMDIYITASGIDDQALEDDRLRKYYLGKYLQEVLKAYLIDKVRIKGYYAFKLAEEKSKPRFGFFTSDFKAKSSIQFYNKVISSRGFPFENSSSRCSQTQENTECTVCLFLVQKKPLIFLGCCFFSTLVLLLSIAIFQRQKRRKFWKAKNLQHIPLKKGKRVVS
Experiment: FGF receptor potency in an Erk phosphorylation assay in HEK293 overexpressing human BKL
Type: cell-based
Details: HEK293/BKL cells, pERK after 12 minutes, absence of HSA; read-out: EC50
Procedure: In order to test the binding of the FGF21 derivatives to albumin, the assay was performed in the absence of serum albumin as well as in the presence of human serum albumin (HSA) (0.1% final assay concentration). […] HEK293 cells endogenously express several FGF receptors, including FGFR1c, FGFR3c and FGFR4. […] As described below the level of pERK is measured after 12 minutes of stimulation with a range of FGF21 analogue concentrations. […]
A collection of molecules and their measured pEC50
Just the number, please; pEC50 means minus log10 of the concentration in mol/L.

Take a look at these entries with their results.
molecule	pEC50
S{Beta-180}-[2-[2-[[2-[2-[2-[[2-[2-[2-[[(4S)-4-carboxy-4-(15-carboxypentadecanoyl-amino)butanoyl]amino]ethoxy]ethoxy]acetyl]amino]ethoxy]ethoxy]acetyl]amino]-ethylamino]-2-oxoethyl]-Ala[Gln121,Leu168, … (protein) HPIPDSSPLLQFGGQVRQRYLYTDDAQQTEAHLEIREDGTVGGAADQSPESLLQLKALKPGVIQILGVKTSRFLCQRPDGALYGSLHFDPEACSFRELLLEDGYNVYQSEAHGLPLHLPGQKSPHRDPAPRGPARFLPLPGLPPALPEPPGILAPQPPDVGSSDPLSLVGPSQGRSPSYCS	8.40
Ala[Gln121, Leu168]FGF21 (protein, N-terminal Ala) AHPIPDSSPLLQFGGQVRQRYLYTDDAQQTEAHLEIREDGTVGGAADQSPESLLQLKALKPGVIQILGVKTSRFLCQRPDGALYGSLHFDPEACSFRELLLEDGYNVYQSEAHGLPLHLPGQKSPHRDPAPRGPARFLPLPGLPPALPEPPGILAPQPPDVGSSDPLSLVGPSQGRSPSYAS	8.70

Exercise: Which pEC50 value is on record for Ala[Gln121, Leu168, Cys175]FGF21 (protein, FGF21 analogue) HPIPDSSPLLQFGGQVRQRYLYTDDAQQTEAHLEIREDGTVGGAADQSPESLLQLKALKPGVIQILGVKTSRFLCQRPDGALYGSLHFDPEACSFRELLLEDGYNVYQSEAHGLPLHLPGQKSPHRDPAPRGPARFLPLPGLPPALPEPPGILAPQPPDVGSSDPLSLVGPSQGCSPSYAS ?
Solution: 7.96

Exercise: Sample S{Beta-169}-[2-[2-[[2-[2-[2-[[2-[2-[2-[[(4S)-4-carboxy-4-(15-carboxypentadecanoyl-amino)butanoyl]amino]ethoxy]ethoxy]acetyl]amino]ethoxy]ethoxy]acetyl]amino]-ethylamino]-2-oxoethyl]-Ala[Gln121,Leu168, … (protein) HPIPDSSPLLQFGGQVRQRYLYTDDAQQTEAHLEIREDGTVGGAADQSPESLLQLKALKPGVIQILGVKTSRFLCQRPDGALYGSLHFDPEACSFRELLLEDGYNVYQSEAHGLPLHLPGQKSPHRDPAPRGPARFLPLPGLPPALPEPPGILAPQPPDVGSSDPLSLCGPSQGRSPSYAS — what was its pEC50?
Solution: 7.60

Exercise: Tell me the measured pEC50 of 4-[10-[[4-[2-[2-[2-[2-[2-[2-[[(1S)-5-acetamido-1-carboxy-pentyl]amino]-2-oxo-ethoxy]ethoxy]ethylamino]-2-oxo-ethoxy]ethoxy]ethylamino]-4-oxo-butyl]sulfonylamino]-10-oxo-decoxy]benzoic … (protein) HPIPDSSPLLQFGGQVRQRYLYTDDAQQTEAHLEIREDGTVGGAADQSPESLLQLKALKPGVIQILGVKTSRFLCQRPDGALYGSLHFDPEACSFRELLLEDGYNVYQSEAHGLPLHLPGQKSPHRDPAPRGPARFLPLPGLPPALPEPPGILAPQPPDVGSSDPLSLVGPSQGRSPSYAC , please.
Solution: 7.61
